Values compiled from paper doi:10.1101/2022.03.05.483025v1.

- Measurement Target: UniProtKB H9BQY4
- Sequence (H9BQY4 2509-2811 limits assumed): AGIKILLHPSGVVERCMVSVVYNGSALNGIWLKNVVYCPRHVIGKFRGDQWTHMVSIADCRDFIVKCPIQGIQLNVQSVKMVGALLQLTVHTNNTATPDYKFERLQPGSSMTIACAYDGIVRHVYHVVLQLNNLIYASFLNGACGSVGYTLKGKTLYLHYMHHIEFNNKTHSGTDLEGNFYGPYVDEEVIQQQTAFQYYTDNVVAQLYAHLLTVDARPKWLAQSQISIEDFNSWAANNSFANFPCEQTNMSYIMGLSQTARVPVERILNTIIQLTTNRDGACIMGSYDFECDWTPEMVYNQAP
- Condition Notes: read-out: PM-2-27A (trans); covalent
Reported Metric: pIC50
Numbers only, as −log10 of the molar value.

Suppose we examine the compound O=C(CCl)N1N=C(c2ccccc2)[C@H](c2ccccc2)[C@H]1c1cccc2nccnc12 (relative stereo) [PM-2-27A (trans)] ; what pIC50 value has been reported? 5.27

* * *

Hi there, I'd appreciate the recorded pIC50 for every entry that follows.
- Measurement Target: UniProtKB P0C6X1
- Sequence (P0C6X1 2966-3267 limits assumed): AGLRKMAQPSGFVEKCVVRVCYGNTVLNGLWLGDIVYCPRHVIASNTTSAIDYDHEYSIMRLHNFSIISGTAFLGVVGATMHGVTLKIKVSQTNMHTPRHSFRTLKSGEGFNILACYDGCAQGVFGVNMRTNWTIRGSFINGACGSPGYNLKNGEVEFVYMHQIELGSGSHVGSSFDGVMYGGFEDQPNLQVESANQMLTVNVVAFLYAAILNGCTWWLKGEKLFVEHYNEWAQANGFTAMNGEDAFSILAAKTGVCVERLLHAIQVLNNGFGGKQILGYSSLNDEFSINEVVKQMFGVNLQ
- Test Method Notes: biochemical
Answers are plain numbers, as −log10 of the molar value.

O=C(CCl)N1N=C(c2cc(F)cc(Cl)c2)CC1c1cccc2nccnc12 (stereo not drawn)
8.28
O=C(CCl)N1N=C(c2cccc(Cl)c2)CC1c1cccc2nccnc12 (stereo not drawn)
8.26

Suppose we examine the molecule O=C(CCl)N1N=C(c2ccccc2)CC1c1cccnc1 (stereo not drawn) ; what pIC50 value has been reported? 7.27
